TARGET_DESC: CK2A1 (CK2α/β) (Homo sapiens)
ASSAY_NAME: CK2 kinase assay, CK2A1 (CK2α/β)
Assay type: biochemical
ASSAY_CONTEXT: Table A; read-out: CK2A1 (CK2α/β) (IC50)
Decide using IC50 alone. Strictly below 0.9 nM: yes (1). Equal to or above 0.9 nM: no (0).

As a guide, the following entries are already answered.
Exam item: Here's an entry: CCNc1nc(Nc2cc(C#N)cc(N3CC[C@@H](NC(=O)OC)[C@H](NC4COC4)C3)c2Cl)nn2c(C#N)cnc12 . Is its IC50 below 0.9 nM?
Marked response: no (0)

Exam item: Another compound to check: COC(=O)N[C@H]1CCN(c2cc(C(N)=O)cc(Nc3nc(NC4CC4)c4ncc(C#N)n4n3)c2Cl)C[C@@H]1O
Marked response: no (0)

Exam item: Same question, N#Cc1cc(Nc2nc(NC3CC3)c3ncc(C#N)n3n2)c(Cl)c(OC2CCN(C3COC3)CC2)c1 this time
Marked response: yes (1)

Exam item: // query: CC(C)(O)C1CN(c2cc(C#N)cc(Nc3nc(NC4CC4)c4ncc(C#N)n4n3)c2Cl)CCO1 (racemic)
Marked response: yes (1)

Exam item: Now the same for COC(=O)N[C@@H]1CCN(c2cc(C#N)cc(Nc3nc(NC4CC4)c4ncc(C#N)n4n3)c2Cl)C[C@H]1OC(=O)[C@@H](N)C(C)C (racemic)
Marked response: no (0)

Continuing:
Exam item: I'd appreciate it if you could check whether CC(CCc1cc(Cl)c(Nc2nc(NC3CC3)c3ncc(C#N)n3n2)cc1C#N)N1CC(O)C1 (stereo not shown) has IC50 smaller than 0.9 nM.
Marked response: no (0)

Exam item: Consider next the compound CC1(N)CCN(c2cc(C#N)cc(Nc3nc(NC4CC4)c4ncc(C#N)n4n3)c2Cl)CC1 in the same way.
Marked response: yes (1)

Exam item: Moving on to N#Cc1cc(Nc2nc(NC3CC3)c3ncc(C#N)n3n2)c(Cl)c(C2CCN(CC3CC3)CC2)c1
Marked response: yes (1)

Exam item: Let us now turn to CC(=O)N[C@@H]1CCN(c2cc(C#N)cc(Nc3nc(NC4CC4)c4ncc(C#N)n4n3)c2Cl)C[C@H]1O (racemic)
Marked response: yes (1)

----------
TARGET_DESC: CK2A1 (CK2α/β) (Homo sapiens, UniProt P68400)
Sequence (P68400 whole entry, species assumed): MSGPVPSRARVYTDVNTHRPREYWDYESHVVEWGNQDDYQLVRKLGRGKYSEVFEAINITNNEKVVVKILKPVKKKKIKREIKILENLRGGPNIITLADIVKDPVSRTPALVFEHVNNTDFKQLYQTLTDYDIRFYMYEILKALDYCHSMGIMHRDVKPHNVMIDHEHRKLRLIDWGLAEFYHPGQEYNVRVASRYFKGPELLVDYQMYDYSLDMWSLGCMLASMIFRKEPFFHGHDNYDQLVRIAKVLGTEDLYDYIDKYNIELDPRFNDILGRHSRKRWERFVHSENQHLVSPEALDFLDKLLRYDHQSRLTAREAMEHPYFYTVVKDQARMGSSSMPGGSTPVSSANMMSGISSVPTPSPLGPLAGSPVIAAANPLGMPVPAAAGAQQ
Sequence (P67870 whole entry partner, species assumed): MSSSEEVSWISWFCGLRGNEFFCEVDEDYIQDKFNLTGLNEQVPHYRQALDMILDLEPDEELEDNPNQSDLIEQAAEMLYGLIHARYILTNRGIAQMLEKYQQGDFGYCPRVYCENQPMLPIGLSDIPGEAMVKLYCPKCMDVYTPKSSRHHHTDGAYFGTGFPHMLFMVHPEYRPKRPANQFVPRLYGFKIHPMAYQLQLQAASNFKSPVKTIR
ASSAY_NAME: CK2 kinase assay, CK2A1 (CK2α/β)
Format: biochemical
ASSAY_CONTEXT: Table A; read-out: CK2A1 (CK2α/β) (IC50)
pIC50: −log10 of the molar value. Where a name gives a salt, the structure may show the parent alone.
// -1 strictly below 9 in pIC50; 1 otherwise

Examples with answers:
Exam item: Answer whether pIC50 of CO[C@@H]1CN(c2cc(C#N)cc(Nc3nc(NC4CC4)c4ncc(C#N)n4n3)c2Cl)C[C@@H]1NC(=O)NC1COC1 [Example 290] is greater than or equal to 9.
Marked response: 1

Exam item: How about N#Cc1cc(NCCO)c(Cl)c(Nc2nc(NC3CC3)c3ncc(C#N)n3n2)c1 [Example 615] ?
Marked response: 1

Exam item: # iterate: N#Cc1cc(Nc2nc(NC3CC3)c3ncc(C#N)n3n2)c(OC[C@@H]2COCCN2)cc1F [Example 424]
Marked response: -1

Exam item: Moving on to COC(=O)N1CC(N2CCN(c3cc(OC(F)F)cc(Nc4nc(NC5CC5)c5ncc(C#N)n5n4)c3Cl)CC2)C1 [Example 562]
Marked response: -1

Exam item: Param item: CCNc1nc(Nc2cc(C#N)cc(N3CC[C@@H](NC(=O)OC)[C@H](OC(=O)CCCCN)C3)c2Cl)nn2c(C#N)cnc12 [Example 816, hydrochloride]
Marked response: -1

New cases:
Exam item: Decide: is the reported value of pIC50 for CCNc1nc(Nc2cc(C#N)cc(N3CC[C@@H](NC(=O)OC)[C@H](OC(=O)C[C@H](N)C(=O)OC(C)(C)C)C3)c2Cl)nn2c(C#N)cnc12 [Example 815, hydrochloride] equal to or greater than 9?
Marked response: -1

----------
Kindly supply the reported IC50 values for the records listed here.
TARGET_DESC: CK2A1 (CK2α/β) (Homo sapiens)
ASSAY_NAME: CK2 kinase assay, CK2A1 (CK2α/β)
Assay type: biochemical
ASSAY_CONTEXT: Table A; read-out: CK2A1 (CK2α/β) (IC50)
Answers are plain numbers, in pM.

Exam item: // returns reported IC50 for input CC(O)CCc1cc(Cl)c(Nc2nc(NC3CC3)c3ncc(C#N)n3n2)cc1C#N (centres unmarked) [Example 722]
Marked response: 160

Exam item: And what about the molecule COCCN(C)Cc1cc(C#N)cc(Nc2nc(NC3CC3)c3ncc(C#N)n3n2)c1Cl [Example 475] ?
Marked response: 1780

State recorded IC50 for all listed molecules.
1. N#Cc1cc(Nc2nc(NC3CC3)c3ncc(C#N)n3n2)c(Cl)c(N2CCN3CC[C@H](O)[C@H]3C2)c1 (racemic) [Example 438]
2. CC(C)(C)C(=O)N1CCC(c2cc(C#N)cc(Nc3nc(NC4CC4)c4ncc(C#N)n4n3)c2Cl)CC1 [Example 234]
3. N#Cc1cc(CN2CCC3(CC2)COC3)c(Cl)c(Nc2nc(NC3CC3)c3ncc(C#N)n3n2)c1 [Example 665]
4. N#Cc1cc(Nc2nc(NC3CC3)c3ncc(C#N)n3n2)c(Cl)c(N2CC[C@H]3[C@H](CCN3C3CS(=O)(=O)CC3O)C2)c1 (stereo in doubt) [Example 453]
5. COC(=O)N[C@H]1CCN(c2cc(C#N)cc(Nc3nc(NC4CC4)c4ncc(C#N)n4n3)c2Cl)CC1NC(C)C (stereo in doubt) [Example 752]
6. N#Cc1cc(Nc2nc(NC3CC3)c3ncc(C#N)n3n2)c(Cl)c(N2CCN(C(=O)OCC3(CO)COC3)CC2)c1 [Example 533]
7. CCNc1nc(Nc2cc(C#N)cc(N3CC[C@@H](NC(=O)OC)[C@H](O)C3)c2F)nn2c(C#N)cnc12 [Example 381]

Marked response:
1: 730; 2: 1600; 3: 670; 4: 1040; 5: 4930; 6: 430; 7: 530

Batch request: IC50 per item, same order as input.
1. C[C@@H](CN1CCN(c2cc(C#N)cc(Nc3nc(NC4CC4)c4ncc(C#N)n4n3)c2Cl)CC1)NS(C)(=O)=O [Example 69]
2. CCNc1nc(Nc2cc(C#N)cc(N3C[C@H](NC(=O)OC)[C@H](OC)C3)c2Cl)nn2c(C#N)cnc12 [Example 334]
3. CCNc1nc(Nc2cc(C#N)cc(N3CC[C@@H](NC(=O)OC)C(N(C)C[C@H](O)CO)C3)c2Cl)nn2c(C#N)cnc12 (some centres unmarked) [Example 772]
4. N#Cc1cnc2c(NC3CC3)nc(Nc3cc(C(F)F)cc(C4CCN(C5COC5)CC4)c3Cl)nn12 [Example 407]
5. N#Cc1cc(Nc2nc(NC3CC3)c3ncc(C#N)n3n2)c(Cl)c(N2CCN(C(=O)Cc3nnn[nH]3)CC2)c1 [Example 99]

Marked response:
470
1100
14100
1760
320

----------
TARGET_DESC: CK2A1 (CK2α/β) (Homo sapiens)
ASSAY_NAME: CK2 kinase assay, CK2A1 (CK2α/β)
Type: biochemical
ASSAY_CONTEXT: Table A; read-out: CK2A1 (CK2α/β) (IC50)
METRIC: IC50
In your response, the unit should come after the numeric value.

Exam item: Entry N#Cc1cc(Nc2nc(NC3CC3)c3ncc(C#N)n3n2)c(Cl)c(C2CCN(C(=O)C3(O)CC3)CC2)c1 : reported IC50 = ?
Marked response: 0.62 nM

Exam item: Please give the result for Cc1nn(CCN(C)C)c(C)c1-c1cc(C#N)cc(Nc2nc(NC3CC3)c3ncc(C#N)n3n2)c1Cl too.
Marked response: 7.41 nM

Exam item: Next molecule up: CC(=O)N1CCN(CC(O)c2cc(C#N)cc(Nc3nc(NC4CC4)c4ncc(C#N)n4n3)c2Cl)CC1 (centres unmarked)
Marked response: 1 nM

Exam item: Okay, and C[N+]1([O-])CCN(C2CN(c3cc(C#N)cc(Nc4nc(NC5CC5)c5ncc(C#N)n5n4)c3Cl)C2)CC1 ?
Marked response: 2.59 nM

Dear reader, for each entry below, please note its IC50.
1. N#Cc1cc(Nc2nc(NC3CC3)c3ncc(C#N)n3n2)c(Cl)c(N2CCC(O)CC2)c1
2. N#Cc1cc(Nc2nc(NC3CC3)c3ncc(C#N)n3n2)c(Cl)c(N2CC[C@@H](NC3COC3)C2)c1
3. CCNc1nc(Nc2cc(C#N)cc(N3CC[C@@H](NC(=O)OC)[C@H](N[C@H](C)C(N)=O)C3)c2Cl)nn2c(C#N)cnc12
4. N#Cc1cc(Nc2nc(NC3CC3)c3ncc(C#N)n3n2)c(Cl)c(N2CC(N3CCNCC3)C2)c1
5. N#Cc1cc(Nc2nc(NC3CC3)c3ncc(C#N)n3n2)c(F)c(N2CCN(C3(C#N)COC3)CC2)c1

Marked response:
0.46 nM
0.33 nM
1.4 nM
0.42 nM
1.23 nM
